molecular target: T1, human CCR8 (human, UniProt P51685 1-355); assay: flow cytometry on 293F-hCCR8 cells
T1 construct: whole, on cells; the cell line is named under assay; also called hCCR8
T1 sequence (P51685 whole entry): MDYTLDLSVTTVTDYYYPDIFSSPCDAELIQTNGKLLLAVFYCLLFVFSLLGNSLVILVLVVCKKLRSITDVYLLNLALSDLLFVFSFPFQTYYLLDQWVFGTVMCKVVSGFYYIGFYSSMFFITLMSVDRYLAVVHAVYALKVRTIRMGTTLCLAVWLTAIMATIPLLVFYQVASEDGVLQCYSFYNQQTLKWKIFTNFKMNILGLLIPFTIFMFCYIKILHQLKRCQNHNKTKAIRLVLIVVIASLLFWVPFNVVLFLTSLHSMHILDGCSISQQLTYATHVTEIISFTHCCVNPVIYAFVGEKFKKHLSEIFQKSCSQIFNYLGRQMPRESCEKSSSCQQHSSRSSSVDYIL
MEASURED QUANTITY: EC50 (mg/L)
Numbers only here, please. The scale is mg/L.

Known results for binders:
- BINDER: "589D7C7 (antibody, V domains shown, Murine hybridoma antibody; also called 589D7C7 hybridoma antibody) VH: EVQLVESGGGLVQPKGSLKLSCAASGFNFNAYAMNWVRQAPGKGLEWVARIRSKSNNFATYYADSVKDRFTISRDDSESMVYLEMNNLKTEDTAMYYCVRHGRRDLLYSMDFWGQGTSVTVSS VL: DIVMTQAAFSNPVTLGTSASISCRSSKSLLHSNGITYLFWYLQKPGQSPQLLIYQMSNLASGVPDRFSGSGSGTDFTLRISRVEAEDVAVYYCAQSLELPLTFGGGTKLEIK"
  EC50 (mg/L): 0.361
- BINDER: "27B9-1G3 (antibody, V domains shown, Murine hybridoma antibody (supernatant or Protein A purified); also called 27B9-1G3 hybridoma antibody) VH: EIQLQQSGPELEKPGASVKISCKASGYSFTGYNMNWVKKSNGKSLEWIGNIDPYYGGTNYNQKFKGKATLTVDKSSSTAYMQLKSLTSEDSAVYYCARETWFITTGVIKKGFYFDYWGQGTTLTVSS VL: EIVLTQSPTTMAASPGEKITLACSASSIISSNYLHWYQQKPGFSPKLLIYRTSSLASGVPARFSGSGSGTSYSLTIGTMEAEDVATYYCQQGSSIPRTFGGGTKLEIK"
  EC50 (mg/L): 0.15
- BINDER: "569D11B5 (antibody, V domains shown, Murine hybridoma antibody; also called 569D11B5 hybridoma antibody) VH: EVQLIESGGGLVQPKGSLKLSCAASGFNFNAYAMNWVRQAPGKGLEWVARIRSKSNDFATYYADSVKGRFTISRDDSENMLFLQMNNLKTEDTAMYYCVRHGRRDLLYSMDFWGQGTSVTVSS VL: DIVMTQAAFSNPVTLGTSASISCRSSKSLLHSNGITYLFWYLQKPGQSPQLLIYQMSNLASGVPDRFSGSGSGTDFTLRISRVEAEDVGVYYCAQSLELPLTFGGGTKLEIK"
  EC50 (mg/L): 0.159
- BINDER: "559E1B10 (antibody, V domains shown, Murine hybridoma antibody; also called 559E1B10 hybridoma antibody) VH: KVQLQQSGPVLVKPGASVKMSCKASGYTFTDYYVNWMKQNYGKSPEWIGVINPHNGDTRYNQKFKGKATLTVDKSSSTANMELTSLTSGDSAVYYCASWLRRGYYFDSWGQGTTLTVSS VL: DIVMTQSPATLSVTPGDRVSLSCRASQSISDYLHWYQQKSHESPRLLLKYVSQSISGIPSRFSGSGSGSDFTLTINSVEPEDVGVYYCQNGHSFPLTFGAGTKLELK"
  EC50 (mg/L): 0.107

Tell me the measured EC50 of 563E10E12 (antibody, V domains shown, Murine hybridoma antibody; also called 563E10E12 hybridoma antibody) VH: EVQLIESGGGLVQPKGSLKLSCAASGFNFNAYAMNWVRQAPGKGLEWVARIRSKSNNFATYYADSVTDRFTISRDDSESMLYLQMNNLKTEDTAMYYCVRHGRRDLLYSMDFWGQGTSVTVSS VL: DVVMTQAAFSNPVTLGTSTSISCRSSKSLLHSNGITYLFWYLQKPGQSPQLLIYQMSNLASGVPDRFSGSGSGTDFTLRISRVEAEDVGVYYCAQSLELPLTFGGGTKLEIK , please.
0.195
